src = patent US20090233979A1

Quick list: IC50 per entry.
experimentalSystem: hTRβ (Homo sapiens, UniProt P10828)
Sequence (P10828 1-461): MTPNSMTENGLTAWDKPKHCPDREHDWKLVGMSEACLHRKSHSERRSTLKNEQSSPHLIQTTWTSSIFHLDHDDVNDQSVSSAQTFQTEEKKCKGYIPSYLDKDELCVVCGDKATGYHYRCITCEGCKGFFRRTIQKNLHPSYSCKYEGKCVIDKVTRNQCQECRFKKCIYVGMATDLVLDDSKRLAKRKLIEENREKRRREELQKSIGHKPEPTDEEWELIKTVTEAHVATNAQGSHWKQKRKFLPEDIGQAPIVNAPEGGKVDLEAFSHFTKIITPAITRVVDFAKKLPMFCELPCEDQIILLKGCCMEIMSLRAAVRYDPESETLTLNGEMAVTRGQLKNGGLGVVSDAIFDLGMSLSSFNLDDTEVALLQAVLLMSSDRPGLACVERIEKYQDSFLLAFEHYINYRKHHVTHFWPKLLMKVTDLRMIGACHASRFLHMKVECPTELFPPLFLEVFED
Give the number; nM is assumed, so skip it.

COc1ccc(-c2[nH]c3ccc(Oc4c(Cl)cc(CCC(=O)O)cc4Cl)cc3c2C(C)C)cc1 [Comparative Example 2, reference compound] ... 51.5
CCOC(=O)CNc1cc(C)c(Oc2ccc3[nH]cc(C(C)C)c3c2)c(C)c1 [compound 3, reference compound] ... 326

Now consider the entry below.
**Query** Please report the recorded IC50 for Cc1cc(NCC(=O)O)cc(C)c1Oc1ccc2[nH]cc(C(C)C)c2c1 [compound 4, reference compound] .
**Result** 43.1
